Source listed as patent US10239878B2.

# METHOD_SUMMARY: Photophysical characterization of Eu complexes (UV-vis absorption, quantum yield, lifetime)
# Assay type: physicochemical
# RUN_PARAMETERS: luminescence, HPLC purified Eu complexes
# Procedure: The europium complexes of ligands 16, 29, 33, 40, and 43 were prepared by separately dissolving each ligand (2 mg) into methanol (200 μL). […] A few drops of these methanolic solutions were evaporated to dryness, and then the residue was dissolved into TBS buffer at a concentration of ca. 3 μM to make aqueous stock solutions (20 mL) with an absorbance of 0.05 (1 cm path length) at 365 nm. […]
QUANTITY_NAME: Lifetime (μs)

* O=C1NCCCN(C(=O)c2cccc(=O)n2[O-])CCCCN(C(=O)c2cccc(=O)n2[O-])CCCNC(=O)c2ccc(n([O-])c2=O)C(=O)NCCNC(=O)c2ccc1c(=O)n2[O-].[Eu+3] [16⋅Eu] | 716
* NCCOCCNC(=O)C1CCCN(C(=O)c2cccc(=O)n2[O-])CCCNC(=O)c2ccc(n([O-])c2=O)C(=O)NC2COCC2NC(=O)c2ccc(c(=O)n2[O-])C(=O)NCCCN1C(=O)c1cccc(=O)n1[O-].[Eu+3] (mixture of isomers) [43⋅Eu] | 734
* NCCCC[C@H]1CNC(=O)c2ccc(c(=O)n2[O-])C(=O)NCCCN(C(=O)c2cccc(=O)n2[O-])CCCCN(C(=O)c2cccc(=O)n2[O-])CCCNC(=O)c2ccc(n([O-])c2=O)C(=O)N1.[Eu+3] [29⋅Eu] | 716
* O=C1NCCCN(C(=O)c2cccc(=O)n2[O-])CCCCN(C(=O)c2cccc(=O)n2[O-])CCCNC(=O)c2ccc(n([O-])c2=O)C(=O)N[C@@H]2COC[C@@H]2NC(=O)c2ccc1c(=O)n2[O-].[Eu+3] [40⋅Eu] | 729
* NCCOCCNC(=O)C1CCCN(C(=O)c2cccc(=O)n2[O-])CCCNC(=O)c2ccc(n([O-])c2=O)C(=O)NCCNC(=O)c2ccc(c(=O)n2[O-])C(=O)NCCCN1C(=O)c1cccc(=O)n1[O-].[Eu+3] (centres unmarked) [33⋅Eu] | 723

---

Each entry below carries its recorded Φtotal at 365 nm excitation.
# METHOD_SUMMARY: Photophysical characterization of Eu complexes (UV-vis absorption, quantum yield, lifetime)
# Format: physicochemical
# RUN_PARAMETERS: TBS buffer; quinine sulfate as quantum yield standard
QUANTITY_NAME: Φtotal at 365 nm excitation (%)

• O=C1NCCCN(C(=O)c2cccc(=O)n2[O-])CCCCN(C(=O)c2cccc(=O)n2[O-])CCCNC(=O)c2ccc(n([O-])c2=O)C(=O)NCCNC(=O)c2ccc1c(=O)n2[O-].[Eu+3] [16⋅Eu] = 30.9
• NCCCC[C@H]1CNC(=O)c2ccc(c(=O)n2[O-])C(=O)NCCCN(C(=O)c2cccc(=O)n2[O-])CCCCN(C(=O)c2cccc(=O)n2[O-])CCCNC(=O)c2ccc(n([O-])c2=O)C(=O)N1.[Eu+3] [29⋅Eu] = 29.8
• O=C1NCCCN(C(=O)c2cccc(=O)n2[O-])CCCCN(C(=O)c2cccc(=O)n2[O-])CCCNC(=O)c2ccc(n([O-])c2=O)C(=O)N[C@@H]2COC[C@@H]2NC(=O)c2ccc1c(=O)n2[O-].[Eu+3] [40⋅Eu] = 28.2
• NCCOCCNC(=O)C1CCCN(C(=O)c2cccc(=O)n2[O-])CCCNC(=O)c2ccc(n([O-])c2=O)C(=O)NCCNC(=O)c2ccc(c(=O)n2[O-])C(=O)NCCCN1C(=O)c1cccc(=O)n1[O-].[Eu+3] (centres unmarked) [33⋅Eu] = 30.0
• NCCOCCNC(=O)C1CCCN(C(=O)c2cccc(=O)n2[O-])CCCNC(=O)c2ccc(n([O-])c2=O)C(=O)NC2COCC2NC(=O)c2ccc(c(=O)n2[O-])C(=O)NCCCN1C(=O)c1cccc(=O)n1[O-].[Eu+3] (mixture of isomers) [43⋅Eu] = 28.8
